The reported numbers originate from patent US7163954B2.

- TARGET_OF_ASSAY: recombinant human plasminogen activator inhibitor-1 (PAI-1) (Homo sapiens)
- Construct: purchased Molecular Innovations, Royal Oak, Mich
- Sequence (P05121 24-402): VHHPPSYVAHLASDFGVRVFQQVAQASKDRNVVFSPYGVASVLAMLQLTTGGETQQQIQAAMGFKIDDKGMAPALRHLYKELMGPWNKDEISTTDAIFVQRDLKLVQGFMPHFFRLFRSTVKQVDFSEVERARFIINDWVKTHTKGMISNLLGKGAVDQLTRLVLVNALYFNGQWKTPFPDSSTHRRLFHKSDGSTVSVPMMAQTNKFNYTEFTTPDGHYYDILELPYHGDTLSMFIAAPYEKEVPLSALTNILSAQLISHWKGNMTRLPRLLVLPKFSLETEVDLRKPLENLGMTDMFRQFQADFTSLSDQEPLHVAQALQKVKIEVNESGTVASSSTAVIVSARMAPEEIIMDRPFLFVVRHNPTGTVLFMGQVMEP
- ASSAY_PROTOCOL: Primary screen for the PAI-1 inhibition (residual tPA activity, Spectrozyme-tPA chromogenic substrate)
- Assay type: biochemical
- EXPERIMENTAL_CONDITIONS: 25 μM test compound; inhibition of Plasminogen Activator Inhibitor-1
Kindly supply the reported inhibition at 25 µM values for the records listed here.
Numbers only, in %.

Field: example entries. Status: answers known.
Q: // map O=C(Cc1ccccc1)c1c(-c2ccc3c(Br)c(OCc4nnn[nH]4)ccc3c2)sc2ccccc12 [Compound 3] to recorded inhibition at 25 µM (system: recombinant human plasminogen activator inhibitor-1 (PAI-1) (Homo sapiens))
Ans: 52

Q: Missing value: inhibition at 25 µM, recombinant human plasminogen activator inhibitor-1 (PAI-1) (Homo sapiens), entry CCCCC(=O)c1c(-c2ccc3c(Br)c(OCC(=O)O)ccc3c2)sc2ccccc12 [Compound 2] . Fill in?
Ans: 69

Quick request: inhibition at 25 µM for each listed item, please.
1. O=C(O)COc1ccc2cc(-c3sc4ccccc4c3C(=O)Cc3ccccc3)ccc2c1Br [Compound 4]
2. CC(C)CC(=O)c1c(-c2ccc3c(Br)c(OCc4nnn[nH]4)ccc3c2)sc2ccccc12 [Compound 5]
3. CCCCC(=O)c1c(-c2ccc3c(Br)c(OCc4nnn[nH]4)ccc3c2)sc2ccccc12 [Compound 1]
4. CC(C)(C)CC(=O)c1c(-c2ccc3c(Br)c(OCC(=O)O)ccc3c2)sc2ccccc12 [Compound 6]

Ans:
[54, 84, 59, 77]
